Give inhibition for every item shown.
biological target: Mitogen-activated protein kinase kinase kinase kinase 2 (Homo sapiens) (UniProt Q12851); settings: at 0.1 µM;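 further: values given as mean percent inhibition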
Sequence (Q12851 whole entry): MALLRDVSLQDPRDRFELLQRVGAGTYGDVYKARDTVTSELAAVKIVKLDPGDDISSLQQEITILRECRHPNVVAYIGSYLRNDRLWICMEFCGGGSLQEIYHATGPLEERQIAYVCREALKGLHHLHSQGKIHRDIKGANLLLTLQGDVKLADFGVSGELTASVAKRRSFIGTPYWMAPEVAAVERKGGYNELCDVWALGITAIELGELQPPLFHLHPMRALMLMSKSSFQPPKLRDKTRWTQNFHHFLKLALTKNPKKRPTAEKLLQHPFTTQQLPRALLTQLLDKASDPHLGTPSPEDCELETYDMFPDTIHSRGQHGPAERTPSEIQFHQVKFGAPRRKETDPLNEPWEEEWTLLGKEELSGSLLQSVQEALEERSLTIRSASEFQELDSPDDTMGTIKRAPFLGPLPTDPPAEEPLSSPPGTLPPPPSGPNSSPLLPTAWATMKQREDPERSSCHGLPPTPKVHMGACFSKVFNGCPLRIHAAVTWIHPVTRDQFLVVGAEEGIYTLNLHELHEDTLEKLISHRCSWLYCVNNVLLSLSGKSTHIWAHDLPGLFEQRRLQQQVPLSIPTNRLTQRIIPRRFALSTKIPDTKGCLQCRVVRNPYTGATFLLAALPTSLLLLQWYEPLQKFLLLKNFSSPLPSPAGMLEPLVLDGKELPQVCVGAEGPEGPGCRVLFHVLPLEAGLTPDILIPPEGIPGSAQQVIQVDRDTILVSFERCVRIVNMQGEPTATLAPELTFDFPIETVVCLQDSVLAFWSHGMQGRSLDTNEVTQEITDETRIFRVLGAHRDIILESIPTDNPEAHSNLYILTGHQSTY
Supply the numeric figure in %, leaving out any unit text.

Task item: Look up inhibition for this compound: NS(=O)(=O)c1ccc(N/N=C2\C(=O)Nc3ccc4ncccc4c32)cc1
Reply: 11.7

Task item: Look up inhibition for this compound: COc1ccc2c(-c3ccnc(Nc4cccc(OC(F)(F)F)c4)n3)cnn2n1
Reply: 0.05

Task item: Look up inhibition for this compound: c1ccc(-c2nc3n(c2-c2ccc4c(c2)OCO4)CCC3)nc1
Reply: 2.19

Task item: Look up inhibition for this compound: CCN(CC)S(=O)(=O)c1ccc(OC)c(Nc2ncc(-c3ccccc3)o2)c1
Reply: 1.18

Task item: Look up inhibition for this compound: COc1cc(N2CCN(C(C)C)CC2)ccc1Nc1nc(Nc2ccc(F)cc2C(N)=O)c2cc[nH]c2n1
Reply: 4.5

Task item: Look up inhibition for this compound: CS(=O)(=O)CCNCc1coc(-c2ccc3ncnc(Nc4ccc(OCc5ccccc5)cc4)c3c2)c1
Reply: 0.9

Task item: Look up inhibition for this compound: CCCN1CCC(c2ccc(Nc3nc(Nc4cc(F)ccc4C(N)=O)c4cc[nH]c4n3)c(OC)c2)CC1
Reply: 10.2

Task item: Look up inhibition for this compound: CCc1nn2ncccc2c1-c1ccnc(NC2CC2)n1
Reply: 0.96

Task item: Look up inhibition for this compound: Clc1ccc(-c2nn3ncccc3c2-c2ccnc(Nc3ccccc3)n2)cc1
Reply: 1.09

Task item: Look up inhibition for this compound: Fc1cccc(COc2ccc(Nc3ncnc4sc(-c5ccco5)cc34)cc2Cl)c1
Reply: 1.99

Task item: Look up inhibition for this compound: CC1=C(C(=O)Nc2cc(Cl)c3[nH]ncc3c2)C(c2ccc(C(F)(F)F)cc2)CC(=O)N1 (centres undefined)
Reply: 2

Task item: Look up inhibition for this compound: O=C(O[C@H]1CN[C@H](C#Cc2cc3ncnc(Nc4ccc(Cc5ccccc5)cc4)c3s2)C1)N1CCOCC1
Reply: 0.39

Task item: Look up inhibition for this compound: NS(=O)(=O)c1ccc(Nc2ncc(-c3ccccc3)o2)cc1
Reply: 1.1

Task item: Look up inhibition for this compound: COc1ccc(-c2nn3ncccc3c2-c2ccnc(Nc3ccc4c(c3)OCCO4)n2)cc1
Reply: 0.69

Task item: Look up inhibition for this compound: Nc1ncc(-c2cccc(S(N)(=O)=O)c2)c2scc(-c3ccc(F)c(Cl)c3)c12
Reply: 6.47

Task item: Look up inhibition for this compound: CNC(=O)c1cc(-c2ccc(F)cc2)cc(-c2ccc(S(=O)(=O)N3CCCC3)cc2)c1N
Reply: 1

Task item: Look up inhibition for this compound: CCOc1ccc2c(-c3ccnc(Nc4cccc(C(F)(F)F)c4)n3)cnn2n1
Reply: 0.42

Task item: Look up inhibition for this compound: O=S(=O)(CCNCc1ccc(-c2ccc3ncnc(Nc4ccc(OCc5cccc(F)c5)c(Cl)c4)c3c2)o1)c1ccccc1
Reply: 2.04

Task item: Look up inhibition for this compound: CCn1c(-c2nonc2N)nc2c(C#CC(C)(C)O)nc(OC[C@H](N)c3ccccc3)cc21
Reply: 3.33

Task item: Look up inhibition for this compound: CN1CCC(n2cnc(-c3ccc(F)cc3)c2-c2ccnc(Nc3ccccc3)n2)CC1
Reply: 1.51

Task item: Look up inhibition for this compound: CCNC(=O)O[C@H]1CN[C@H](C#Cc2cc3ncnc(Nc4ccc(OCc5cccc(F)c5)c(Cl)c4)c3s2)C1
Reply: 0.18

Task item: Look up inhibition for this compound: c1cc(-c2cnn3nc(N4CCOCC4)ccc23)nc(NC2CC2)n1
Reply: -0.22

Task item: Look up inhibition for this compound: COc1ccc(-c2cc3c(N)ncnc3o2)cc1
Reply: 2.31

Task item: Look up inhibition for this compound: COC(=O)c1sc(-n2cnc3cc(OC)c(OC)cc32)cc1OCc1ccccc1C(F)(F)F
Reply: -0.16

Task item: Look up inhibition for this compound: COc1cc(Nc2nccc(Nc3ccc4c(C)n[nH]c4c3)n2)cc(OC)c1OC
Reply: 3.12

Task item: Look up inhibition for this compound: COc1cc2ncn(-c3cc(OCc4ccccc4C(F)(F)F)c(C(=O)N(C)C)s3)c2cc1OC
Reply: 0.57

Task item: Look up inhibition for this compound: COc1cc(/C=N/Nc2ncnc3[nH]ncc23)ccc1O
Reply: 1.7

Task item: Look up inhibition for this compound: COc1ccc(CNC(=O)c2ccc(-c3cc(-c4nnc(C)o4)ccc3C)cc2)cc1
Reply: 4

Task item: Look up inhibition for this compound: COc1cccc(-c2c[nH]c3c(N/N=C/c4ccncc4)ncnc23)c1
Reply: 3.34

Task item: Look up inhibition for this compound: N#Cc1c(NC(=O)c2ccc(F)cc2)sc2c1CCCC2
Reply: 0.12

Task item: Look up inhibition for this compound: COc1ccc(-c2oc3ncnc(N)c3c2-c2ccc(NC(=O)Nc3cc(C(F)(F)F)ccc3F)cc2)cc1
Reply: 8.42

Task item: Look up inhibition for this compound: CN(C)CCOc1ccc(-c2nc(-c3ccncc3)c(-c3ccc4c(c3)CC/C4=N\O)[nH]2)cc1
Reply: 0.69

Task item: Look up inhibition for this compound: COC(=O)Nc1nc2ccc(Oc3ccc(NC(=O)Nc4cccc(Cl)c4)cc3)cc2[nH]1
Reply: 0.77

Task item: Look up inhibition for this compound: Nc1nc(-c2cccc(Cl)c2)c(-c2ccc3ncccc3n2)s1
Reply: 1.48

---

biological target: Tyrosine-protein kinase Tec (Homo sapiens); settings: at 1 µM
Give inhibition for every item shown.
Supply the numeric figure in %, leaving out any unit text.

Task item: Report inhibition for CN1CCC(n2cnc(-c3ccc(F)cc3)c2-c2ccnc(Nc3ccccc3)n2)CC1 tested on Tyrosine-protein kinase Tec (Homo sapiens).
Reply: 3.4

Task item: Report inhibition for CCN(CC)S(=O)(=O)c1ccc(OC)c(Nc2ncc(-c3ccccc3)o2)c1 tested on Tyrosine-protein kinase Tec (Homo sapiens).
Reply: 11.9

Task item: Report inhibition for CCc1nn2ncccc2c1-c1ccnc(NC2CC2)n1 tested on Tyrosine-protein kinase Tec (Homo sapiens).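 Further: each value is the mean of the inhibition measurements.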
Reply: 4.89

---

Give inhibition for every item shown.
target: MAP/microtubule affinity-regulating kinase 4 (Homo sapiens); conditions: at 1 µM
Supply the numeric figure in %, leaving out any unit text.

Task item: Report inhibition for COc1cc2ncn(-c3cc(OCc4ccccc4C(F)(F)F)c(C(=O)N(C)C)s3)c2cc1OC tested on MAP/microtubule affinity-regulating kinase 4 (Homo sapiens).
Reply: 0.92

Task item: Report inhibition for CN(C)CCOc1ccc(-c2nc(-c3ccncc3)c(-c3ccc4c(c3)CC/C4=N\O)[nH]2)cc1 tested on MAP/microtubule affinity-regulating kinase 4 (Homo sapiens).
Reply: 2.12

Task item: Report inhibition for FC(F)(F)c1cccc(-c2nn3ncccc3c2-c2ccnc(Nc3ccc4c(c3)OCCO4)n2)c1 tested on MAP/microtubule affinity-regulating kinase 4 (Homo sapiens).
Reply: 1.99

Task item: Report inhibition for Nc1ncc(-c2cccc(S(N)(=O)=O)c2)c2scc(-c3ccc(F)c(Cl)c3)c12 tested on MAP/microtubule affinity-regulating kinase 4 (Homo sapiens).
Reply: 5.58

Task item: Report inhibition for O=C(Nc1n[nH]c2cc(-c3ccc(F)cc3)ccc12)C1CC1 tested on MAP/microtubule affinity-regulating kinase 4 (Homo sapiens).
Reply: 3.26

Task item: Report inhibition for CN1CCC(n2cnc(-c3ccc(F)cc3)c2-c2ccnc(N)n2)CC1 tested on MAP/microtubule affinity-regulating kinase 4 (Homo sapiens).
Reply: 0.48

Task item: Report inhibition for CC(=O)NCc1cccc(C#Cc2cncnc2Nc2ccc(OCc3cccc(F)c3)c(Cl)c2)c1 tested on MAP/microtubule affinity-regulating kinase 4 (Homo sapiens).
Reply: 3.13

Task item: Report inhibition for CCN1CCC(CC(=O)Nc2n[nH]c3nnc(-c4cccc(F)c4F)cc23)CC1 tested on MAP/microtubule affinity-regulating kinase 4 (Homo sapiens).
Reply: 2.11

Task item: Report inhibition for COc1ccc2c(-c3ccnc(Nc4cccc(OC(F)(F)F)c4)n3)cnn2n1 tested on MAP/microtubule affinity-regulating kinase 4 (Homo sapiens).
Reply: 3.99

Task item: Report inhibition for COc1cc(/C=N/Nc2ncnc3[nH]ncc23)ccc1O tested on MAP/microtubule affinity-regulating kinase 4 (Homo sapiens).
Reply: 15.4

Task item: Report inhibition for COC(=O)Nc1nc2ccc(S(=O)(=O)c3ccc(NC(=O)Nc4cc(C(F)(F)F)ccc4F)cc3)cc2[nH]1 tested on MAP/microtubule affinity-regulating kinase 4 (Homo sapiens).
Reply: 1.06

Task item: Report inhibition for COc1cc(N2CCN(C(C)C)CC2)ccc1Nc1nc(Nc2ccc(F)cc2C(N)=O)c2cc[nH]c2n1 tested on MAP/microtubule affinity-regulating kinase 4 (Homo sapiens).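 Further: reported value is a mean MARK4 inhibition at 1 µM, taken from the GSK PKIS screening set.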
Reply: 37.8

---

Give inhibition for every item shown.
target: Calcium/calmodulin-dependent protein kinase type II subunit delta (Homo sapiens) (UniProt Q13557); details: at 1 µM;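 further: mean percent inhibition of CAMK2D, from screening of the GSK Published Kinase Inhibitor Set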
Sequence (Q13557 whole entry): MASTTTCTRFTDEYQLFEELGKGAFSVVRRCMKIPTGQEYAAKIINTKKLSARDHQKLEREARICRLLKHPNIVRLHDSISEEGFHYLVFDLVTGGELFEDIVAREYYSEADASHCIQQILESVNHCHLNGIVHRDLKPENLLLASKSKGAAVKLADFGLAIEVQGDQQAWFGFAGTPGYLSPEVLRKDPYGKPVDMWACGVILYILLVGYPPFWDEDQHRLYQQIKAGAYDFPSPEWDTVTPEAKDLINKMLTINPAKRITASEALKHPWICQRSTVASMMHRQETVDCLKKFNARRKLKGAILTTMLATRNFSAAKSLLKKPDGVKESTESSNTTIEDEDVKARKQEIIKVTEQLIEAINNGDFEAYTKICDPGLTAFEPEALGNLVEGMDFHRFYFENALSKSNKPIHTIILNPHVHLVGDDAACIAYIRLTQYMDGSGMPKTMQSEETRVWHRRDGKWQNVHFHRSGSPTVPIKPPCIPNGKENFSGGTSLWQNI
Supply the numeric figure in %, leaving out any unit text.

Task item: Look up inhibition for this molecule: CCn1c(-c2nonc2N)nc2c(C#CC(C)(C)O)nc(OC[C@H](N)c3ccccc3)cc21
Reply: 8.64

Task item: Look up inhibition for this molecule: c1ccc(-c2nc3n(c2-c2ccc4c(c2)OCO4)CCC3)nc1
Reply: 0.93

Task item: Look up inhibition for this molecule: CCc1nn2ncccc2c1-c1ccnc(NC2CC2)n1
Reply: 4.18

Task item: Look up inhibition for this molecule: COC(=O)Nc1nc2ccc(S(=O)(=O)c3ccc(NC(=O)Nc4cc(C(F)(F)F)ccc4F)cc3)cc2[nH]1
Reply: 3.6

Task item: Look up inhibition for this molecule: Fc1cccc(COc2ccc(Nc3ncnc4sc(-c5ccco5)cc34)cc2Cl)c1
Reply: 1.67

Task item: Look up inhibition for this molecule: Fc1ccc(-c2cc(-c3c[nH]nc3-c3ccccn3)ccn2)cc1
Reply: 4.06

Task item: Look up inhibition for this molecule: COc1ccc(-c2nn3ncccc3c2-c2ccnc(Nc3ccc4c(c3)OCCO4)n2)cc1
Reply: 0.2

Task item: Look up inhibition for this molecule: c1ccc(COc2ccc(Nc3ncnc4ccc(-c5ccco5)cc34)cc2)cc1
Reply: 0.25

Task item: Look up inhibition for this molecule: Cc1cccc(Nc2ncc(-c3ccccc3)o2)c1
Reply: 6.85

Task item: Look up inhibition for this molecule: COc1cc2ncn(-c3cc(OCc4ccccc4C(F)(F)F)c(C(=O)N(C)C)s3)c2cc1OC
Reply: 1.17

Task item: Look up inhibition for this molecule: CN(C)CCOc1ccc(-c2nc(-c3ccncc3)c(-c3ccc4c(c3)CC/C4=N\O)[nH]2)cc1
Reply: 1.23

Task item: Look up inhibition for this molecule: Cc1ccc(O)cc1Nc1ccnc2cc(-c3ccccn3)ccc12
Reply: 6.51

Task item: Look up inhibition for this molecule: COc1cc2c(cc1Nc1nc(Nc3ccsc3C(N)=O)c3cc[nH]c3n1)N(C(=O)CN(C)C)CCC2(C)C
Reply: 25.7

Task item: Look up inhibition for this molecule: CN1CCC(n2cnc(-c3ccc(F)cc3)c2-c2ccnc(Nc3ccccc3)n2)CC1
Reply: 2.35

Task item: Look up inhibition for this molecule: COc1ccc(-c2oc3ncnc(N)c3c2-c2ccc(NC(=O)Nc3cc(C(F)(F)F)ccc3F)cc2)cc1
Reply: 21.5

Task item: Look up inhibition for this molecule: CCn1c(-c2nonc2N)nc2ccccc21
Reply: 4.89

Task item: Look up inhibition for this molecule: COc1ccc(CNC(=O)c2ccc(-c3cc(-c4nnc(C)o4)ccc3C)cc2)cc1
Reply: -0.53

Task item: Look up inhibition for this molecule: COc1cc(N2CCN(C(C)C)CC2)ccc1Nc1nc(Nc2ccc(F)cc2C(N)=O)c2cc[nH]c2n1
Reply: 75.1

Task item: Look up inhibition for this molecule: CS(=O)(=O)CCNCc1ccc(-c2ccc3ncnc(Nc4ccc(OCc5ccccc5)c(C(F)(F)F)c4)c3c2)o1
Reply: 1.77

Task item: Look up inhibition for this molecule: COc1cccc(-c2c[nH]c3c(N/N=C/c4ccncc4)ncnc23)c1
Reply: 15.2

Task item: Look up inhibition for this molecule: CNC(=O)c1cccc(C#Cc2cncnc2Nc2ccc(OCc3cccc(F)c3)c(Cl)c2)c1
Reply: 1.19

Task item: Look up inhibition for this molecule: Nc1nc(-c2ccc(F)cc2)c(-c2ccc3ncccc3n2)s1
Reply: 4.81

Task item: Look up inhibition for this molecule: O=C(Nc1n[nH]c2cc(-c3ccc(F)cc3)ccc12)C1CC1
Reply: 3.77

Task item: Look up inhibition for this molecule: COC(=O)Nc1nc2ccc(Oc3ccc(NC(=O)Nc4cccc(Cl)c4)cc3)cc2[nH]1
Reply: 0.37

Task item: Look up inhibition for this molecule: CC(C)COC(=O)c1ccc2c(c1)/C(=C/Nc1ccc(S(N)(=O)=O)cc1)C(=O)N2
Reply: 36.7

Task item: Look up inhibition for this molecule: N#Cc1c(NC(=O)c2ccc(F)cc2)sc2c1CCCC2
Reply: 0.72

Task item: Look up inhibition for this molecule: COc1cccc(-n2ncc3c(N/N=C/c4ccc(F)cc4)ncnc32)c1
Reply: 3.49

Task item: Look up inhibition for this molecule: Fc1ccc(-c2nn3ncccc3c2-c2ccnc(Nc3ccc4c(c3)OCCO4)n2)cc1
Reply: 5.51

Task item: Look up inhibition for this molecule: [O-][S+]1CCN(Cc2ccc(-c3ccc4ncnc(Nc5ccc(OCc6cccc(F)c6)c(Cl)c5)c4c3)o2)CC1
Reply: 3.95

Task item: Look up inhibition for this molecule: CCN1CCC(CC(=O)Nc2n[nH]c3nnc(-c4cccc(F)c4F)cc23)CC1
Reply: 0.77

Task item: Look up inhibition for this molecule: CNC(=O)c1cncc(/C=C/c2ccccc2Cl)c1
Reply: -0.98

Task item: Look up inhibition for this molecule: FC(F)(F)c1cccc(-c2nn3ncccc3c2-c2ccnc(Nc3ccc4c(c3)OCCO4)n2)c1
Reply: 3.33

Task item: Look up inhibition for this molecule: CCN(CC)S(=O)(=O)c1ccc(OC)c(Nc2ncc(-c3ccccc3)o2)c1
Reply: 8.27

Task item: Look up inhibition for this molecule: CC(=O)NCc1cccc(C#Cc2cncnc2Nc2ccc(OCc3cccc(F)c3)c(Cl)c2)c1
Reply: 1.1
